Sourced from patent US9822058B2

- STUDY_SYSTEM: KMO mouse enzyme (Mus musculus, UniProt Q91WN4)
- Construct: KMO enzyme prepared at Evotec from mouse liver (4-6 weeks old) via mitochondria isolation; from tissue; host or cells: mouse liver (4-6 weeks old), isolated mitochondria, prepared at Evotec
- Sequence (Q91WN4 whole entry): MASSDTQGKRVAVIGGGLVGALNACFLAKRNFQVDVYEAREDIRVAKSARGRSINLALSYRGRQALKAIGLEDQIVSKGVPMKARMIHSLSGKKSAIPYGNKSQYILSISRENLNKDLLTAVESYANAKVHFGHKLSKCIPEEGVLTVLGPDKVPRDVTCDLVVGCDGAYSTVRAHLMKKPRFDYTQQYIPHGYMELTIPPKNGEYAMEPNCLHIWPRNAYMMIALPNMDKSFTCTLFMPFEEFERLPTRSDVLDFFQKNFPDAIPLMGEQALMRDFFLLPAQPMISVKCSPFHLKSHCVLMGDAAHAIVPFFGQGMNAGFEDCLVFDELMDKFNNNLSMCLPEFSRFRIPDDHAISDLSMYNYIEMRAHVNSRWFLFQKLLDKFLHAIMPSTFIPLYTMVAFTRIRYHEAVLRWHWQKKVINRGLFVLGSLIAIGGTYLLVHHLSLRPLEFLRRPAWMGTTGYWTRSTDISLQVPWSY
- METHOD_SUMMARY: KMO mouse enzyme assay: L-Kynurenine hydroxylation to 3-Hydroxy-Kynurenine by LC/MS (protocols substantially similar to Example 33)
- Format: biochemical
- RECORDED_CONDITIONS: compound at 30 µM; KMO enzyme from mouse liver mitochondria; 100 μM L-Kynurenine; 40 min at RT
ENDPOINT_NAME: inhibition at 30 µM (%)

> print(dat)
                                   compound  reported.result
1  O=C(O)[C@H]1C[C@@H]1C(=O)c1ccc(C(F)(F)F)c(Cl)c1              102
2  O=C(O)[C@H]1C[C@@H]1C(=O)c1ccc(Cl)c(F)c1              103
3  CC(C)OC(=O)OC(C)OC(=O)[C@H]1C[C@@H]1C(=O)c1ccc(Cl)c(Cl)c1 (stereo partly drawn)              103
4  CC(C)Oc1ccc(C(=O)[C@H]2C[C@@H]2C(=O)O)cc1Cl               98
5  CC(C)(C)c1ccc(OC(=O)[C@H]2C[C@@H]2C(=O)c2ccc(Cl)c(Cl)c2)cc1              101
6  O=C(c1ccc(Cl)c(Cl)c1)[C@H]1C[C@@H]1c1nnn[nH]1              101
7  O=C(c1ccc(Cl)c(Cl)c1)[C@H]1C[C@@H]1c1noc(=O)[nH]1              101
8  O=C(Nc1ccccc1)[C@H]1C[C@@H]1C(=O)c1ccc(Cl)c(Cl)c1               86
9  CC(C)(C)C(=O)OCOC(=O)[C@H]1C[C@@H]1C(=O)c1ccc(Cl)c(Cl)c1              102
